# assay.system: opioid κ receptor (Homo sapiens)
# Construct: expressed in transfected cells; host or cells: CHO cells
# Sequence (P41145 whole entry): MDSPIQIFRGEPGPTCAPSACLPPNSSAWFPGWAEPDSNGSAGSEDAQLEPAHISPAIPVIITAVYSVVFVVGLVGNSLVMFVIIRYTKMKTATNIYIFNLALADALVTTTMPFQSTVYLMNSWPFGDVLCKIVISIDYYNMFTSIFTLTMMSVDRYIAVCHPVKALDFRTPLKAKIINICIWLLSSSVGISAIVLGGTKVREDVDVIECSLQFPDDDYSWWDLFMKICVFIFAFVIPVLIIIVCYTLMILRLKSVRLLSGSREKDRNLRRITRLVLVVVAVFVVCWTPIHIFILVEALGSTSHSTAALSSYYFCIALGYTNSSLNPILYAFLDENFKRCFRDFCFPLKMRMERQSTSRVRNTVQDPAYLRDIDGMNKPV
# measurement.notes: Opioid receptor functional test (Lance Ultra cAMP Kit), κ receptor agonist activity
# Assay type: cell-based
# measurement.context: maximum response relative to U-69593 taken as 100%; hydrochloride was used; read-out: κ Receptor Emax
property.measured: Emax (%)
Numbers only; they are read as %.

Study these solved cases before continuing.
COc1cc2c(cc1[N+](=O)[O-])C[C@H]1N(CC3CC3)CC[C@@]23C2C4CC[C@@]13C[C@@H]2CN4c1nc(C)cc(C)n1 (stereo partly shown) [Compound 311] :: 16
Oc1ccc2c(c1)C13CCN(CC4CC4)C(C2)C12CCC1C3[C@@H](CN1c1nccs1)C2 (stereo partly shown) [Compound 241] :: 33
O=C(c1ccccc1)N1C[C@H]2C[C@@]34CCC1C2[C@@]31CCN(CC2CC2)[C@@H]4Cc2ccccc21 (stereo partly shown) [Compound 298] :: 32

Query: # query: Emax of entry Nc1ccc2c(c1)[C@]13CCN(CC4CC4)[C@H](C2)[C@]12CCC1C3[C@@H](CN1C(=O)c1ccccc1)O2 (stereo partly shown) [Compound 308]
Response: 38

Query: Given Oc1ccc2c(c1)[C@]13CCN(CC4CC4)[C@H](C2)[C@]12CCC1C3[C@@H](CN1c1ccccn1)C2 (stereo partly shown) [Compound 221] , state its recorded Emax.
Response: 42

Query: Please give the measured Emax for this compound: O=C(c1ccccc1)N1C[C@H]2O[C@@]34CC[C@@H]1[C@@H]2[C@@]31CCN(CC2CC2)[C@@H]4Cc2cccc(O)c21 [Compound 68]
Response: 99

Query: Would you mind telling me what Emax value was observed for O=C(N1CCCCC1)N1C[C@H]2CC34CCC1C2C31CCN(CC2CC2)C4Cc2ccc(O)cc21 (stereo partly shown) [Compound 167] ?
Response: 22

###

# assay.system: opioid μ receptor (Homo sapiens, UniProt P35372)
# Construct: expressed in transfected cells; host or cells: CHO cells
# Sequence (P35372 whole entry): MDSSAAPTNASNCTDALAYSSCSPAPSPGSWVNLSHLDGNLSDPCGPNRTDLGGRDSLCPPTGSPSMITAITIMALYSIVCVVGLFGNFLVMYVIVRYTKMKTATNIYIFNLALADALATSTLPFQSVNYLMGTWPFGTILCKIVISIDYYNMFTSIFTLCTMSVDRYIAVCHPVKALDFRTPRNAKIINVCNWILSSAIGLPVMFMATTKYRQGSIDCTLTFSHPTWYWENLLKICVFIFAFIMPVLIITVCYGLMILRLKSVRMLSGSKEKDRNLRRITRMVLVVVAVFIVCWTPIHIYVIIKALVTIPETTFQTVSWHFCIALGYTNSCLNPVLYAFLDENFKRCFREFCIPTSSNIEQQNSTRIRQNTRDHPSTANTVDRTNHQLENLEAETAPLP
# measurement.notes: Opioid receptor functional test (Lance Ultra cAMP Kit), μ receptor agonist activity
# Type: cell-based
# measurement.context: maximum concentration (10 μM), reaction did not reach the maximum, EC50 N.C.; relative to DAMGO; hydrochloride was used; read-out: μ Receptor responce rate at the maximum concentration (reference value)
Catalogue of Emax at 10 µM values
The reply should contain only the number, in %.

CC(C)N(Cc1ccccc1)C(=O)N1C[C@H]2C[C@@]34CCC1C2[C@@]31CCN(CC2CC2)[C@@H]4Cc2ccc(O)cc21 (stereo partly drawn) :: 3
Oc1ccc2c(c1)C13C(O)CN(CC4CC4)C(C2)C12CCC1C3[C@@H](CN1Cc1ccccc1)O2 (stereo partly drawn) :: 0.9

Query: Can you look up the measured Emax at 10 µM of `Oc1ccc2c(c1)[C@]13CCN(CC4CC4)[C@H](C2)[C@]12CC[C@@H]1[C@H]3[C@@H](CN1c1ccccc1)O2` for me?
Response: 14

###

Listing of recorded EC50 by entry.
# assay.system: opioid δ receptor (Homo sapiens)
# Construct: expressed in transfected cells; host or cells: CHO cells
# Sequence (P41143 whole entry): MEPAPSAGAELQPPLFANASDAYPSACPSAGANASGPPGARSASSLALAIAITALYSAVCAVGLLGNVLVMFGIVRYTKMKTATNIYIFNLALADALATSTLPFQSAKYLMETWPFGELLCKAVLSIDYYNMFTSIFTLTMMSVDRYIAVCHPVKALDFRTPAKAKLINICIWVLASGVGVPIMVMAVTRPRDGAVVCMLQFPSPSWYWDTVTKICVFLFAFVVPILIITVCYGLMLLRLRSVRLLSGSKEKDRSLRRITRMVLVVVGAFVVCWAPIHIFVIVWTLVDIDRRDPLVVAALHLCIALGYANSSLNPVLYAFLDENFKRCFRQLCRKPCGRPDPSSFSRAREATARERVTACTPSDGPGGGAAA
# measurement.notes: Opioid receptor functional test (Lance Ultra cAMP Kit), δ receptor agonist activity
# Type: cell-based
# measurement.context: CHO cells expressing δ opioid receptor, 10 μM forskolin, cAMP; hydrochloride was used; read-out: δ Receptor EC50 value

// known answers, use as guide
O=C(c1ccccc1)N1C[C@H]2C[C@@]34CCC1C2[C@@]31CCN(CC2CC2)[C@@H]4Cc2ccccc21 (stereo partly drawn) :: < 10 nM
CC(C)COC(=O)N1C[C@H]2CC34CCC1C2C31CCN(CC2CC2)C4Cc2ccc(O)cc21 (stereo partly drawn) :: < 10 nM
CN1CC[C@@]23c4cc(O)ccc4C[C@@H]1[C@]21CC[C@@H]2[C@H]3[C@@H](CN2C(=O)c2ccccc2)O1 :: < 1 nM
Cc1cc(C)nc(N2C[C@H]3C[C@@]45CCC2C3[C@@]42CCN(CC3CC3)[C@@H]5Cc3cccc(O)c32)n1 (stereo partly drawn) :: < 10 nM
Oc1ccc2c(c1)[C@]13CCN(CC4CC4)[C@H](C2)[C@]12CCC1C3[C@@H](CN1c1ccccn1)C2 (stereo partly drawn) :: < 1 nM

Read the next record carefully.
Query: Find the recorded EC50 belonging to O=C(/C=C/c1ccccc1)N1C[C@H]2OC34CCC1C2C31CCN(CC2CC2)C4Cc2ccc(O)cc21 (stereo partly drawn) and report it.
Response: < 10 nM
